- target or test system: UniProt:O14842
- Sequence (O14842 whole entry): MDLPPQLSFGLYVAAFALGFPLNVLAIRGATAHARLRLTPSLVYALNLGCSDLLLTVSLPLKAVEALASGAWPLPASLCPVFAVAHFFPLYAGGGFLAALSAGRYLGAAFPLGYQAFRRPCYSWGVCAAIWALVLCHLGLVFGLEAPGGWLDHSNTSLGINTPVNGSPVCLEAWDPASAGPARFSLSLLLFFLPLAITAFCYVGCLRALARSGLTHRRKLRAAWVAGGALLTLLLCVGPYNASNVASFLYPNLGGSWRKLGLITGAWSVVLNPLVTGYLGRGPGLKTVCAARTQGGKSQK
- test method notes: Calcium Flux Primary Assay
- reported conditions: HEK293 cells over expressing human GPR40; intracellular calcium, FLIPR
pEC50: −log10 of the molar value.
property measured: pEC50

[[record]]
smiles_structure = "CC#C[C@@H](CC(=O)O)c1ccc(OCc2ccc(CN3CCC4(C=Cc5ccccc54)CC3)s2)cc1"
target_or_test_system = "UniProt:O14842"
property_measured = "pEC50"
result_value = 6.94

